- Measurement Target: BuChE (EC 3.1.1.8, from equin serum) (Equus caballus, UniProt P81908)
- Construct: BuChE (EC 3.1.1.8, from equin serum); purchased Sigma Aldrich (Steinheim, Germany); host or cells: equine serum
- Sequence (P81908 whole entry): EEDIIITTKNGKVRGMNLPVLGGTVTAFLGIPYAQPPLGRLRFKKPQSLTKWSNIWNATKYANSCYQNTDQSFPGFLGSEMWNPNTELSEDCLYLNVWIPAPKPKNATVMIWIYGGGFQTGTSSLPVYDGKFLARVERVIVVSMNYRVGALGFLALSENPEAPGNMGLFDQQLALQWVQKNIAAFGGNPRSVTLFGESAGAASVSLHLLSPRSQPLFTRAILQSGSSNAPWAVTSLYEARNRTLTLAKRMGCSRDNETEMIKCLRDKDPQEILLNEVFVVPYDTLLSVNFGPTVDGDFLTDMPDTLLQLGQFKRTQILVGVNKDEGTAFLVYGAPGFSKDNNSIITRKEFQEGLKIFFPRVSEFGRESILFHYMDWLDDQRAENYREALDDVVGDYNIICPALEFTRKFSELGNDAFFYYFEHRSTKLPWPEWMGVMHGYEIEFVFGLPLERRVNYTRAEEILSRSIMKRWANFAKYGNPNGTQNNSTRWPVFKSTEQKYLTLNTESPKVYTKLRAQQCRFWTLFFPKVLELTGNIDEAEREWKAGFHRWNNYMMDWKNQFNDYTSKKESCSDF
- Measurement Notes: biochemical
- Assay type: biochemical
- Reported Conditions: IC50(AChE)/IC50(BuChE)

- Record Smiles: "Cl.O=C(NCCCCCNc1c2c(nc3ccccc13)CCC2)c1cnc(Cl)c(Cl)c1"
  Selectivity for BuChE: 0.619
- Record Smiles: "Cl.O=C(NCCCCCCNc1c2c(nc3ccccc13)CCC2)c1cnc(Cl)c(Cl)c1"
  Selectivity for BuChE: 0.420
- Record Smiles: "Cl.O=C(NCCCCCCCCNc1c2c(nc3ccccc13)CCC2)c1cnc(Cl)c(Cl)c1"
  Selectivity for BuChE: 1.407
- Record Smiles: "Cl.O=C(NCCCCCCCCCNc1c2c(nc3ccccc13)CCC2)c1cnc(Cl)c(Cl)c1"
  Selectivity for BuChE: 1.889
- Record Smiles: "Cl.O=C(NCCCCCCCNc1c2c(nc3ccccc13)CCC2)c1cnc(Cl)c(Cl)c1"
  Selectivity for BuChE: 1.756
- Record Smiles: "Cl.O=C(NCCNc1c2c(nc3ccccc13)CCC2)c1cnc(Cl)c(Cl)c1"
  Selectivity for BuChE: 0.035
- Record Smiles: "Cl.O=C(NCCCCNc1c2c(nc3ccccc13)CCC2)c1cnc(Cl)c(Cl)c1"
  Selectivity for BuChE: 0.934

----------
- Measurement Target: AChE (EC 3.1.1.7, from Electrophorus electricus) (Electrophorus electricus, UniProt O42275)
- Construct: purchased Sigma Aldrich (Steinheim, Germany)
- Sequence (O42275 24-633): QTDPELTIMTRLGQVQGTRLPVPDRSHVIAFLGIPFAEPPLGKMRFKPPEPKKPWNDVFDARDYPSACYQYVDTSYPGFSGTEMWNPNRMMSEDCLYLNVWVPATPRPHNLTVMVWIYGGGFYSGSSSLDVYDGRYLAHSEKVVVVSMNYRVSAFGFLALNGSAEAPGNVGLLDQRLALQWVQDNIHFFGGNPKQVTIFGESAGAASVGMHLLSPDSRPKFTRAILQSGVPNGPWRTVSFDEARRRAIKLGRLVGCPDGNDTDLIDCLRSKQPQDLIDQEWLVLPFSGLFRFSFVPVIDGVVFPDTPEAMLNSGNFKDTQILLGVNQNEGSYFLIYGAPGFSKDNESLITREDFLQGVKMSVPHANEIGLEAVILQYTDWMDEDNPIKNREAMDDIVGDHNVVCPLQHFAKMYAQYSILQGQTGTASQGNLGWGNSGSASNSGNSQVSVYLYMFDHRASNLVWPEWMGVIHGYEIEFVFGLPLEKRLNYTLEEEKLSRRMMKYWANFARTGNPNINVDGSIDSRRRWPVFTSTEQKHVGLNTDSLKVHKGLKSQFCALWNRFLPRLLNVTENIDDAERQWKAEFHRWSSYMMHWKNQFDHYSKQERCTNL
- Measurement Notes: biochemical
- Assay type: biochemical
- Reported Conditions: IC50(BuChE)/IC50(AChE)
The molecules listed here are annotated with their Selectivity for AChE.

- Record Smiles: "Cl.O=C(NCCNc1c2c(nc3ccccc13)CCC2)c1cnc(Cl)c(Cl)c1"
  Selectivity for AChE: 28.593
- Record Smiles: "Cl.O=C(NCCCCCCNc1c2c(nc3ccccc13)CCC2)c1cnc(Cl)c(Cl)c1"
  Selectivity for AChE: 2.380
- Record Smiles: "Cl.O=C(NCCCCCCCCNc1c2c(nc3ccccc13)CCC2)c1cnc(Cl)c(Cl)c1"
  Selectivity for AChE: 0.711

----------
- Measurement Target: AChE (EC 3.1.1.7, from Electrophorus electricus) (Electrophorus electricus)
- Construct: purchased Sigma Aldrich (Steinheim, Germany)
- Measurement Notes: biochemical
- Assay type: biochemical
pIC50: −log10 of the molar value.

- Record Smiles: "Cl.O=C(NCCCNc1c2c(nc3ccccc13)CCC2)c1cnc(Cl)c(Cl)c1"
  pIC50: 7.28

----------
The compounds listed here are annotated with their pIC50.
- Measurement Target: AChE (EC 3.1.1.7, from Electrophorus electricus) (Electrophorus electricus)
- Construct: purchased Sigma Aldrich (Steinheim, Germany)
- Measurement Notes: biochemical
- Assay type: biochemical
- Reported Conditions: means ± SEM of three independent experiments; electric eel AChE; read-out: AChE IC50 ± SEM
pIC50: −log10 of the molar value.

- Record Smiles: "Cl.O=C(NCCCCCCCNc1c2c(nc3ccccc13)CCC2)c1cnc(Cl)c(Cl)c1"
  Measurement Target: "AChE (EC 3.1.1.7, from Electrophorus electricus) (Electrophorus electricus)"
  pIC50: 6.90
- Record Smiles: "Cl.O=C(NCCCCCCNc1c2c(nc3ccccc13)CCC2)c1cnc(Cl)c(Cl)c1"
  Measurement Target: "AChE (EC 3.1.1.7, from Electrophorus electricus) (Electrophorus electricus)"
  pIC50: 7.28
- Record Smiles: "Cl.O=C(NCCCCCCCCNc1c2c(nc3ccccc13)CCC2)c1cnc(Cl)c(Cl)c1"
  Measurement Target: "AChE (EC 3.1.1.7, from Electrophorus electricus) (Electrophorus electricus)"
  pIC50: 6.82
